B1: Pistol ribozyme (parent)
chain: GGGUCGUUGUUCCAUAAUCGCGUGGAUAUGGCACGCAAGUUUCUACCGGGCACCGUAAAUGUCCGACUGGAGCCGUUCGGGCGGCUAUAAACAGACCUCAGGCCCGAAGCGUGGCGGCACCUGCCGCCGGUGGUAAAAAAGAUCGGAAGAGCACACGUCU

# Variants of: B1
# Protocol notes: aptazyme ON/OFF ratio, guanine; higher = stronger switching; co-transcriptional cleavage with and without guanine
# aptazyme ON/OFF ratio listing for each entry below
A bare number is all that is needed in reply.

Examples from the recorded data:
>>> df
               mutation_annotation  obs_value
0      U8G G9C U10C U11G C12G C13G       1.11
1  U7G U8A G9A U10C U11A C12G C13A       1.11
2                U7G U8A U10G U11A       2.15
3  U7A U8G G9U U10C U11G C12G C13U       1.18
4           U8A G9C U11C C12A C13G       1.05
5      U7A G9U U10G U11C C12U C13G       1.19
6           U8C G9C U10C U11G C13G       1.31
7           U8C G9U U10C U11C C12G       1.09

In: Annotate the variant U8A G9A U10A C12G C13U with its measured aptazyme ON/OFF ratio.
Out: 1.42

In: Annotate the variant U7A G9A U10A U11G C12G C13U with its measured aptazyme ON/OFF ratio.
Out: 1.25

In: Annotate the variant U7A U8A G9U U10C U11G C12U C13G with its measured aptazyme ON/OFF ratio.
Out: 1.07

In: Annotate the variant U7G G9A U10G U11G C12G C13U with its measured aptazyme ON/OFF ratio.
Out: 1.16

In: Annotate the variant U7A U10A U11C C13U with its measured aptazyme ON/OFF ratio.
Out: 1

In: Annotate the variant U7C G9A U10A U11A C12U C13G with its measured aptazyme ON/OFF ratio.
Out: 1.25

In: Annotate the variant U7G G9C U10G U11A C12A C13A with its measured aptazyme ON/OFF ratio.
Out: 1.13

In: Annotate the variant U7C U8A G9C U10G U11C C13G with its measured aptazyme ON/OFF ratio.
Out: 1.05

In: Annotate the variant U7G G9U U10C U11A with its measured aptazyme ON/OFF ratio.
Out: 3.43

In: Annotate the variant U7G U8A G9U U10A C12U C13U with its measured aptazyme ON/OFF ratio.
Out: 1.07

In: Annotate the variant U7C U8C G9U U10C U11A C13U with its measured aptazyme ON/OFF ratio.
Out: 1.23

In: Annotate the variant U7A U8G G9C U11C C12U C13U with its measured aptazyme ON/OFF ratio.
Out: 1.22
